Tested on: Staphylococcus haemolyticus 105
testMethodNotes: MIC, standard broth micro-dilution assay, SH 105
Format: cell-based
Method: The antibacterial efficacy of the present compounds is illustrated by Table III. The minimal inhibitory concentrations (MICs) were determined using a standard broth micro-dilution assay.
parameter: minimal inhibitory concentration (MIC), SH 105

| compound | observed |
| --- | --- |
| CC(C)CC(NCc1ccc(-c2ccccc2)cc1)C(=O)NC1C(=O)NC(CC(N)=O)C(=O)NC2C(=O)NC3C(=O)NC(C(=O)NC(C(=O)O)c4cc(O)cc(O)c4-c4cc3ccc4O)C(OC3CC(C)(N)C(O)C(C)O3)c3ccc(c(Cl)c3)Oc3cc2cc(c3OC2OC(CO)C(O)C(O)C2OC2CC(C)(N)C(O)C(C)O2)Oc2ccc(cc2Cl)C1O (stereo not drawn) [Example 34] | ≦.06 |
| CC1OC(OC2c3ccc(c(Cl)c3)Oc3cc4cc(c3OC3OC(CO)C(O)C(O)C3OC3CC(C)(NCc5ccc(-c6ccccc6)cc5)C(O)C(C)O3)Oc3ccc(cc3Cl)C(O)C(NC(=O)C(Cc3ccc(Cl)cc3)NC(=O)OC(C)(C)C)C(=O)NC(CC(N)=O)C(=O)NC4C(=O)NC3C(=O)NC2C(=O)NC(C(=O)O)c2cc(O)cc(O)c2-c2cc3ccc2O)CC(C)(N)C1O (stereo not drawn) [Example 21] | 2 |
| CC(C)CCC(=O)NC1C(=O)NC(CC(N)=O)C(=O)NC2C(=O)NC3C(=O)NC(C(=O)NC(C(=O)O)c4cc(O)cc(O)c4-c4cc3ccc4O)C(OC3CC(C)(N)C(O)C(C)O3)c3ccc(c(Cl)c3)Oc3cc2cc(c3OC2OC(CO)C(O)C(O)C2OC2CC(C)(NCc3ccc(-c4ccc(Cl)cc4)cc3)C(O)C(C)O2)Oc2ccc(cc2Cl)C1O (stereo not drawn) [Example 7] | ≦.06 |

----------
System: Staphylococcus aureus 446
testMethodNotes: MIC, standard broth micro-dilution assay, SA 446
Type: cell-based
Procedure: The antibacterial efficacy of the present compounds is illustrated by Table III. The minimal inhibitory concentrations (MICs) were determined using a standard broth micro-dilution assay.
parameter: minimal inhibitory concentration (MIC), SA 446
Answers are plain numbers.

# count of solved cases: 5
| compound | observed |
| --- | --- |
| CC(C)C[C@@H](N)C(=O)N[C@H]1C(=O)N[C@@H](CC(N)=O)C(=O)N[C@H]2C(=O)N[C@H]3C(=O)NC(C(=O)N[C@H](C(=O)O)c4cc(O)cc(O)c4-c4cc3ccc4O)[C@H](OC3CC(C)(N)C(O)C(C)O3)c3ccc(c(Cl)c3)Oc3cc2cc(c3OC2OC(CO)C(O)C(O)C2OC2CC(C)(N)C(O)C(C)O2)Oc2ccc(cc2Cl)[C@H]1O (stereo partly drawn) | 0.5 |
| CC1OC(OC2c3ccc(c(Cl)c3)Oc3cc4cc(c3OC3OC(CO)C(O)C(O)C3OC3CC(C)(NCc5ccc(-c6ccccc6)cc5)C(O)C(C)O3)Oc3ccc(cc3Cl)C(O)C(NC(=O)C(N)CCCCN)C(=O)NC(CC(N)=O)C(=O)NC4C(=O)NC3C(=O)NC2C(=O)NC(C(=O)O)c2cc(O)cc(O)c2-c2cc3ccc2O)CC(C)(N)C1O (stereo not drawn) [Example 23] | 1 |
| CC1OC(OC2c3ccc(c(Cl)c3)Oc3cc4cc(c3OC3OC(CO)C(O)C(O)C3OC3CC(C)(NCc5ccc(-c6ccccc6)cc5)C(O)C(C)O3)Oc3ccc(cc3Cl)C(O)C(NC(=O)C(CCCCNC(=O)OC(C)(C)C)NC(=O)OC(C)(C)C)C(=O)NC(CC(N)=O)C(=O)NC4C(=O)NC3C(=O)NC2C(=O)NC(C(=O)O)c2cc(O)cc(O)c2-c2cc3ccc2O)CC(C)(N)C1O (stereo not drawn) [Example 30] | 8 |
| CC1OC(OC2c3ccc(c(Cl)c3)Oc3cc4cc(c3OC3OC(CO)C(O)C(O)C3OC3CC(C)(NCc5ccc(-c6ccc(Cl)cc6)cc5)C(O)C(C)O3)Oc3ccc(cc3Cl)C(O)C(NC(=O)CCCCCCNC(=O)OC(C)(C)C)C(=O)NC(CC(N)=O)C(=O)NC4C(=O)NC3C(=O)NC2C(=O)NC(C(=O)O)c2cc(O)cc(O)c2-c2cc3ccc2O)CC(C)(N)C1O (stereo not drawn) | 2 |
| CC1OC(OC2C(Oc3c4cc5cc3Oc3ccc(cc3Cl)[C@@H](O)[C@@H](NC(=O)c3ccc(-c6ccccc6)cc3)C(=O)N[C@@H](CC(N)=O)C(=O)N[C@H]5C(=O)N[C@H]3C(=O)NC(C(=O)N[C@H](C(=O)O)c5cc(O)cc(O)c5-c5cc3ccc5O)[C@H](OC3CC(C)(N)C(O)C(C)O3)c3ccc(c(Cl)c3)O4)OC(CO)C(O)C2O)CC(C)(N)C1O (stereo partly drawn) [Example 1, N^1-(p-phenylbenzoyl)desleucylA82846B] | 1 |

Recorded minimal inhibitory concentration (MIC), SA 446 for CC(C)CC(NCc1ccc(-c2ccccc2)cc1)C(=O)NC1C(=O)NC(CC(N)=O)C(=O)NC2C(=O)NC3C(=O)NC(C(=O)NC(C(=O)O)c4cc(O)cc(O)c4-c4cc3ccc4O)C(OC3CC(C)(N)C(O)C(C)O3)c3ccc(c(Cl)c3)Oc3cc2cc(c3OC2OC(CO)C(O)C(O)C2OC2CC(C)(NCc3ccc(-c4ccccc4)cc3)C(O)C(C)O2)Oc2ccc(cc2Cl)C1O (stereo not drawn) , please? 2

----------
Tested on: Staphylococcus aureus 446
testMethodNotes: MIC, standard broth micro-dilution assay, SA 446
Type: cell-based
Procedure: The antibacterial efficacy of the present compounds is illustrated by Table III. The minimal inhibitory concentrations (MICs) were determined using a standard broth micro-dilution assay.
parameter: minimal inhibitory concentration (MIC), SA 446
Answers are plain numbers.

| compound | observed |
| --- | --- |
| CC1OC(OC2c3ccc(c(Cl)c3)Oc3cc4cc(c3OC3OC(CO)C(O)C(O)C3OC3CC(C)(NCc5ccc(-c6ccccc6)cc5)C(O)C(C)O3)Oc3ccc(cc3Cl)C(O)C(NC(=O)C3CCCN3)C(=O)NC(CC(N)=O)C(=O)NC4C(=O)NC3C(=O)NC2C(=O)NC(C(=O)O)c2cc(O)cc(O)c2-c2cc3ccc2O)CC(C)(N)C1O (stereo not drawn) [Example 12] | 2 |

Next up:
What minimal inhibitory concentration (MIC), SA 446 value was documented for this compound, CNC(C(=O)NC1C(=O)NC(CC(N)=O)C(=O)NC2C(=O)NC3C(=O)NC(C(=O)NC(C(=O)O)c4cc(O)cc(O)c4-c4cc3ccc4O)C(OC3CC(C)(N)C(O)C(C)O3)c3ccc(c(Cl)c3)Oc3cc2cc(c3OC2OC(CO)C(O)C(O)C2OC2CC(C)(N)C(O)C(C)O2)Oc2ccc(cc2Cl)C1O)C(C)C (stereo not drawn) ? 0.5

----------
System: Staphylococcus aureus 489
testMethodNotes: MIC, standard broth micro-dilution assay, SA 489
Assay type: cell-based
Please respond with reported minimal inhibitory concentration (MIC), SA 489 for every item in the list.
One number for each entry.

Some entries whose results are on file:
| molecule | observed |
| --- | --- |
| CC1OC(OC2c3ccc(c(Cl)c3)Oc3cc4cc(c3OC3OC(CO)C(O)C(O)C3OC3CC(C)(NCc5ccc(-c6ccccc6)cc5)C(O)C(C)O3)Oc3ccc(cc3Cl)C(O)C(NC(=O)C3CCCN3)C(=O)NC(CC(N)=O)C(=O)NC4C(=O)NC3C(=O)NC2C(=O)NC(C(=O)O)c2cc(O)cc(O)c2-c2cc3ccc2O)CC(C)(N)C1O (stereo not drawn) [Example 32] | 1 |
| CC(C)CC(NC(=O)OC(C)(C)C)C(=O)NC1C(=O)NC(CC(N)=O)C(=O)NC2C(=O)NC3C(=O)NC(C(=O)NC(C(=O)O)c4cc(O)cc(O)c4-c4cc3ccc4O)C(OC3CC(C)(N)C(O)C(C)O3)c3ccc(c(Cl)c3)Oc3cc2cc(c3OC2OC(CO)C(O)C(O)C2OC2CC(C)(NCc3ccc(-c4ccccc4)cc3)C(O)C(C)O2)Oc2ccc(cc2Cl)C1O (stereo not drawn) [Example 18] | 0.125 |

Turning now to a further molecule:
Tell me the measured minimal inhibitory concentration (MIC), SA 489 of CC1OC(OC2c3ccc(c(Cl)c3)Oc3cc4cc(c3OC3OC(CO)C(O)C(O)C3OC3CC(C)(NCc5ccc(-c6ccccc6)cc5)C(O)C(C)O3)Oc3ccc(cc3Cl)C(O)C(NC(=O)C(CCCCNC(=O)OC(C)(C)C)NC(=O)OC(C)(C)C)C(=O)NC(CC(N)=O)C(=O)NC4C(=O)NC3C(=O)NC2C(=O)NC(C(=O)O)c2cc(O)cc(O)c2-c2cc3ccc2O)CC(C)(N)C1O (stereo not drawn) [Example 30] , please. 1

----------
System: Haemophilus influenzae RD
testMethodNotes: MIC, standard broth micro-dilution assay, HFRD
Assay type: cell-based
Answer each item with its documented minimal inhibitory concentration (MIC), HFRD.

Return reported minimal inhibitory concentration (MIC), HFRD values for all items listed beneath this line.
1. CC1OC(OC2c3ccc(c(Cl)c3)Oc3cc4cc(c3OC3OC(CO)C(O)C(O)C3OC3CC(C)(NCc5ccc(-c6ccccc6)cc5)C(O)C(C)O3)Oc3ccc(cc3Cl)C(O)C(NC(=O)C(Cc3ccc(Cl)cc3)NC(=O)OC(C)(C)C)C(=O)NC(CC(N)=O)C(=O)NC4C(=O)NC3C(=O)NC2C(=O)NC(C(=O)O)c2cc(O)cc(O)c2-c2cc3ccc2O)CC(C)(N)C1O (stereo not drawn) [Example 21]
2. CC1OC(OC2c3ccc(c(Cl)c3)Oc3cc4cc(c3OC3OC(CO)C(O)C(O)C3OC3CC(C)(NCc5ccc(-c6ccccc6)cc5)C(O)C(C)O3)Oc3ccc(cc3Cl)C(O)C(NC(=O)C3CCCN3C(=O)OC(C)(C)C)C(=O)NC(CC(N)=O)C(=O)NC4C(=O)NC3C(=O)NC2C(=O)NC(C(=O)O)c2cc(O)cc(O)c2-c2cc3ccc2O)CC(C)(N)C1O (stereo not drawn) [Example 26]
3. CC1OC(OC2c3ccc(c(Cl)c3)Oc3cc4cc(c3OC3OC(CO)C(O)C(O)C3OC3CC(C)(NCc5ccc(-c6ccccc6)cc5)C(O)C(C)O3)Oc3ccc(cc3Cl)C(O)C(NC(=O)C(N)CCCCN)C(=O)NC(CC(N)=O)C(=O)NC4C(=O)NC3C(=O)NC2C(=O)NC(C(=O)O)c2cc(O)cc(O)c2-c2cc3ccc2O)CC(C)(N)C1O (stereo not drawn) [Example 31]

1: 2; 2: >64; 3: >64
